Taken from patent US9951039B2.

Tested on: USA300 #1799 (community-associated MRSA)
assayName: MIC against clinically isolated strain 8
Format: cell-based, S. aureus
conditionDescription: Staphylococcus aureus
Protocol: Procedure of Antimicrobial susceptibility test: The MIC value of compounds was measured in the antimicrobial susceptibility test using the broth microdilution procedure in accordance with the CLSI guidelines.^21 Cation-adjusted Mueller Hinton broth (CA-MHB) was used for all the S. aureus strains in the assay. […] After being incubated at 37° C. for 18 h, OD600 value of cells was measured on a microplate reader and the percentage of bacterial cell inhibition with respect to controls was calculated. […]
testReadout: MIC (µM)

{"compound": "CC(C)c1ccc(CN2CCCN(CCc3cc(-c4ccccc4)nc(-c4ccncc4)n3)CC2)cc1", "studyTarget": "USA300 #1799 (community-associated MRSA)", "testReadout": "MIC", "resultNumber": 10}
{"compound": "CCC(CC)c1cc(CCN2CCCN(Cc3ccc(C(F)(F)F)cc3)CC2)nc(-c2ccncc2)n1", "studyTarget": "USA300 #1799 (community-associated MRSA)", "testReadout": "MIC", "resultNumber": 12}

P. COc1cccc(OC)c1C(=O)N[C@@H]1C(=O)N2[C@@H]1SC(C)(C)[C@@H]2C(=O)O [Methicillin, reference compound]
Q. FC(F)(F)c1ccc(CN2CCCN(CCc3cc(-c4ccccc4)nc(-c4ccncc4)n3)CC2)cc1
Could you check which of P and Q has a smaller value for MIC? Answer by quoting the chosen item's label.
Q
(Q: 10 µM, P: 30 µM)
